experimental.details: Stability and protonation constants of Cu(II)-complexes (spectrophotometry, pH-potentiometry)
Format: physicochemical
measurement.context: 0.15 M NaCl, 25 °C

| molecule | logKCuH2L |
| --- | --- |
| O=C(CCC(C(=O)O)N1CCN(C(CCC(=O)NCC(O)CO)C(=O)O)Cc2cccc(n2)CN(C(CCC(=O)NCC(O)CO)C(=O)O)CC1)NCC(O)CO (racemic) [rac‐L2] | 2.58 (5) |
| O=C(O)CCC(C(=O)O)N1CCN(C(CCC(=O)O)C(=O)O)Cc2cccc(n2)CN(C(CCC(=O)O)C(=O)O)CC1 (stereo not drawn) [ent‐L1] | 4.72 (2) |
| O=C(CCC(C(=O)O)N1CCN(C(CCC(=O)NCC(O)CO)C(=O)O)Cc2cccc(n2)CN(C(CCC(=O)NCC(O)CO)C(=O)O)CC1)NCC(O)CO (stereo not drawn) [ent‐L2] | 1.44 (1) |
| O=C(O)CCC(C(=O)O)N1CCN(C(CCC(=O)O)C(=O)O)Cc2cccc(n2)CN(C(CCC(=O)O)C(=O)O)CC1 (racemic) [rac‐L1] | 4.80 (2) |

----------
experimental.details: Stability and protonation constants of Cu(II)-complexes (spectrophotometry, pH-potentiometry)
Assay type: physicochemical
measurement.context: 0.15 M NaCl, 25 °C

| molecule | logK CuL |
| --- | --- |
| O=C(O)CCC(C(=O)O)N1CCN(C(CCC(=O)O)C(=O)O)Cc2cccc(n2)CN(C(CCC(=O)O)C(=O)O)CC1 (racemic) [rac‐L1] | 23.26(4) |
| O=C(CCC(C(=O)O)N1CCN(C(CCC(=O)NCC(O)CO)C(=O)O)Cc2cccc(n2)CN(C(CCC(=O)NCC(O)CO)C(=O)O)CC1)NCC(O)CO (racemic) [rac‐L2] | 21.04 (5) |
| O=C(CCC(C(=O)O)N1CCN(C(CCC(=O)NCC(O)CO)C(=O)O)Cc2cccc(n2)CN(C(CCC(=O)NCC(O)CO)C(=O)O)CC1)NCC(O)CO (stereo not drawn) [ent‐L2] | 21.52 (4) |
| O=C(O)CCC(C(=O)O)N1CCN(C(CCC(=O)O)C(=O)O)Cc2cccc(n2)CN(C(CCC(=O)O)C(=O)O)CC1 (stereo not drawn) [ent‐L1] | 23.22 (6) |

----------
Listed compounds paired with reported logK1^H
experimental.details: Protonation constants of the ligands (pH-potentiometry)
Assay type: physicochemical
measurement.context: 0.15 M NaCl, 25 °C

| compound | logK1^H |
| --- | --- |
| O=C(CCC(C(=O)O)N1CCN(C(CCC(=O)NCC(O)CO)C(=O)O)Cc2cccc(n2)CN(C(CCC(=O)NCC(O)CO)C(=O)O)CC1)NCC(O)CO (racemic) [rac‐L2] | 9.58 (1) |
| O=C(CCC(C(=O)O)N1CCN(C(CCC(=O)NCC(O)CO)C(=O)O)Cc2cccc(n2)CN(C(CCC(=O)NCC(O)CO)C(=O)O)CC1)NCC(O)CO (stereo not drawn) [ent‐L2] | 10.43(1) |
| O=C(O)CCC(C(=O)O)N1CCN(C(CCC(=O)O)C(=O)O)Cc2cccc(n2)CN(C(CCC(=O)O)C(=O)O)CC1 (stereo not drawn) [ent‐L1] | 10.62 (1) |
| O=C(O)CCC(C(=O)O)N1CCN(C(CCC(=O)O)C(=O)O)Cc2cccc(n2)CN(C(CCC(=O)O)C(=O)O)CC1 (racemic) [rac‐L1] | 10.58 (1) |

----------
experimental.details: Stability and protonation constants of Ca(II)-complexes (pH-potentiometry)
Format: physicochemical
measurement.context: 0.15 M NaCl, 25 °C

| compound | logKCaHL |
| --- | --- |
| O=C(O)CCC(C(=O)O)N1CCN(C(CCC(=O)O)C(=O)O)Cc2cccc(n2)CN(C(CCC(=O)O)C(=O)O)CC1 (stereo not drawn) [ent‐L1] | 5.59 (2) |
| O=C(O)CCC(C(=O)O)N1CCN(C(CCC(=O)O)C(=O)O)Cc2cccc(n2)CN(C(CCC(=O)O)C(=O)O)CC1 (racemic) [rac‐L1] | 5.72 (1) |
| O=C(CCC(C(=O)O)N1CCN(C(CCC(=O)NCC(O)CO)C(=O)O)Cc2cccc(n2)CN(C(CCC(=O)NCC(O)CO)C(=O)O)CC1)NCC(O)CO (racemic) [rac‐L2] | 4.86 (9) |
| O=C(CCC(C(=O)O)N1CCN(C(CCC(=O)NCC(O)CO)C(=O)O)Cc2cccc(n2)CN(C(CCC(=O)NCC(O)CO)C(=O)O)CC1)NCC(O)CO (stereo not drawn) [ent‐L2] | 4.16 (2) |

----------
Listed compounds paired with reported logK CaL
experimental.details: Stability and protonation constants of Ca(II)-complexes (pH-potentiometry)
Format: physicochemical
measurement.context: 0.15 M NaCl, 25 °C

| compound | logK CaL |
| --- | --- |
| O=C(CCC(C(=O)O)N1CCN(C(CCC(=O)NCC(O)CO)C(=O)O)Cc2cccc(n2)CN(C(CCC(=O)NCC(O)CO)C(=O)O)CC1)NCC(O)CO (stereo not drawn) [ent‐L2] | 10.26 (1) |
| O=C(CCC(C(=O)O)N1CCN(C(CCC(=O)NCC(O)CO)C(=O)O)Cc2cccc(n2)CN(C(CCC(=O)NCC(O)CO)C(=O)O)CC1)NCC(O)CO (racemic) [rac‐L2] | 7.84 (2) |
| O=C(O)CCC(C(=O)O)N1CCN(C(CCC(=O)O)C(=O)O)Cc2cccc(n2)CN(C(CCC(=O)O)C(=O)O)CC1 (stereo not drawn) [ent‐L1] | 11.03 (1) |
| O=C(O)CCC(C(=O)O)N1CCN(C(CCC(=O)O)C(=O)O)Cc2cccc(n2)CN(C(CCC(=O)O)C(=O)O)CC1 (racemic) [rac‐L1] | 10.10 (1) |

----------
experimental.details: Stability, protonation and conditional stability constants (pGd) of Gd(III)-complexes (out-of-cell pH-potentiometry, 1H NMR relaxometry, competition with AAZTA)
Assay type: physicochemical
measurement.context: pGd = -log[Gd^3+]free, [Gd^3+]tot = 1 µM, [L]tot = 10 µM, pH 7.4; 0.15 M NaCl
property: pGd

| compound | property | reading |
| --- | --- | --- |
| O=C(O)CCC(C(=O)O)N1CCN(C(CCC(=O)O)C(=O)O)Cc2cccc(n2)CN(C(CCC(=O)O)C(=O)O)CC1 (stereo not drawn) [ent‐L1] | pGd | 17.80 |
| O=C(O)CCC(C(=O)O)N1CCN(C(CCC(=O)O)C(=O)O)Cc2cccc(n2)CN(C(CCC(=O)O)C(=O)O)CC1 (racemic) [rac‐L1] | pGd | 16.33 |
| O=C(CCC(C(=O)O)N1CCN(C(CCC(=O)NCC(O)CO)C(=O)O)Cc2cccc(n2)CN(C(CCC(=O)NCC(O)CO)C(=O)O)CC1)NCC(O)CO (stereo not drawn) [ent‐L2] | pGd | 18.27 |
| O=C(CCC(C(=O)O)N1CCN(C(CCC(=O)NCC(O)CO)C(=O)O)Cc2cccc(n2)CN(C(CCC(=O)NCC(O)CO)C(=O)O)CC1)NCC(O)CO (racemic) [rac‐L2] | pGd | 17.70 |

----------
experimental.details: Protonation constants of the ligands (pH-potentiometry)
Format: physicochemical
measurement.context: 0.15 M NaCl, 25 °C
Listed molecules paired with reported logK4^H
property: logK4^H

| molecule | reading |
| --- | --- |
| O=C(CCC(C(=O)O)N1CCN(C(CCC(=O)NCC(O)CO)C(=O)O)Cc2cccc(n2)CN(C(CCC(=O)NCC(O)CO)C(=O)O)CC1)NCC(O)CO (racemic) [rac‐L2] | 2.86 (3) |
| O=C(CCC(C(=O)O)N1CCN(C(CCC(=O)NCC(O)CO)C(=O)O)Cc2cccc(n2)CN(C(CCC(=O)NCC(O)CO)C(=O)O)CC1)NCC(O)CO (stereo not drawn) [ent‐L2] | 2.05 (2) |
| O=C(O)CCC(C(=O)O)N1CCN(C(CCC(=O)O)C(=O)O)Cc2cccc(n2)CN(C(CCC(=O)O)C(=O)O)CC1 (stereo not drawn) [ent‐L1] | 4.89 (2) |
| O=C(O)CCC(C(=O)O)N1CCN(C(CCC(=O)O)C(=O)O)Cc2cccc(n2)CN(C(CCC(=O)O)C(=O)O)CC1 (racemic) [rac‐L1] | 4.82 (1) |
